FYI, the data here is from PubChem BioAssay AID2060907.

System: 388556-164-R-J1-PDC complex spheroid viability
assay method text: Anticancer human tumor 388556-164-R-J1-PDC patient-derived colon adenocarcinoma cell line growth inhibition [RAS]
test conditions: second compound 0.0316 µM; first compound 0.316 µM; hits give low values
Source text: RAS pathway inhibitors in Combinations in Complex Spheroids A high-throughput screen of multi-cell type tumor spheroids was designed to identify active combinations of RAS pathway inhibitors and targeted small molecules. Complex spheroids include a stromal component modeled by human endothelial cells (HUVEC) and fibroblasts modeled by human mesenchymal stem cells (MSCs). […] Compounds. […] If the clinical Cmax for an agent had not been determined, the highest concentration tested was 10 microM. […]
outcome measure: viability, T/C

>>> result("C=CC(=O)N1CCN(c2nc(OCC3CCCN3C)nc3c(F)c(-c4nc(N)cc(C)c4C(F)(F)F)c(Cl)cc23)C(C)C1 (centres undefined) + C#Cc1c(F)ccc2cc(O)cc(-c3ncc4c(N5CC6CCC(C5)N6)nc(OCC56CCCN5CC(F)C6)nc4c3F)c12")
"110%"

[in] Sample C=CC(=O)Nc1cc(Nc2nccc(-c3cn(C)c4ccccc34)n2)c(OC)cc1N(C)CCN(C)C + C=CC(=O)N1CCN(c2nc(OCC3CCCN3C)nc3c(F)c(-c4nc(N)cc(C)c4C(F)(F)F)c(Cl)cc23)C(C)C1 — what was its viability, T/C?
[out] 70.3%

[in] Sample CCN1CCN(Cc2ccc(Nc3ncc(F)c(-c4cc(F)c5nc(C)n(C(C)C)c5c4)n3)nc2)CC1 + C=CC(=O)N1CCN(c2nc(OCC3CCCN3C)nc3c(F)c(-c4nc(N)cc(C)c4C(F)(F)F)c(Cl)cc23)C(C)C1 — what was its viability, T/C?
[out] 98.3%

[in] Sample CC(=O)OC12COC1CC(O)C1(C)C(=O)C(O)C3=C(C)C(OC(=O)C(O)C(NC(=O)OC(C)(C)C)c4ccccc4)CC(O)(C(OC(=O)c4ccccc4)C21)C3(C)C (centres undefined) + C=CC(=O)N1CCN(c2nc(OCC3CCCN3C)nc3c(F)c(-c4nc(N)cc(C)c4C(F)(F)F)c(Cl)cc23)C(C)C1 — what was its viability, T/C?
[out] 84.7%

====

Test system: 388556-164-R-J1-PDC complex spheroid viability
assay method text: Anticancer human tumor 388556-164-R-J1-PDC cell line growth inhibition [RAS];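 further: spheroids exposed to compound for 7 days before readout; 100% = DMSO vehicle control luminescence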
test conditions: second compound 0.3 µM; first compound 10 µM; hits give low values
outcome measure: viability, T/C (%)
Write the value in % as a bare number.

Here are 5 compounds together with their reported answers.
>>> numeric_value("NC1c2ccccc2OC12CCN(c1cnc3c(N4CCCc5ncccc54)n[nH]c3n1)CC2 (stereo unspecified) + CCn1c(-c2cccnc2C(C)OC)c2c3cc(ccc31)N1CCOC(CC(NC(=O)C(C(C)C)N(C)C(=O)C3(F)CCN(C(=O)C#CC(C)(C)N(C)C)CC3)C(=O)N3CCCC(N3)C(=O)OCC(C)(C)C2)C1")
27.6
>>> numeric_value("CCC(CC)c1cc(NC2CCC(N)C2)n2nccc2n1 (stereo unspecified) + CCn1c(-c2cccnc2C(C)OC)c2c3cc(ccc31)N1CCOC(CC(NC(=O)C(C(C)C)N(C)C(=O)C3(F)CCN(C(=O)C#CC(C)(C)N(C)C)CC3)C(=O)N3CCCC(N3)C(=O)OCC(C)(C)C2)C1")
34.4
>>> numeric_value("CC(=O)OC12COC1CC(O)C1(C)C(=O)C(O)C3=C(C)C(OC(=O)C(O)C(NC(=O)OC(C)(C)C)c4ccccc4)CC(O)(C(OC(=O)c4ccccc4)C21)C3(C)C (stereo unspecified) + CCn1c(-c2cccnc2C(C)OC)c2c3cc(ccc31)N1CCOC(CC(NC(=O)C(C(C)C)N(C)C(=O)C3(F)CCN(C(=O)C#CC(C)(C)N(C)C)CC3)C(=O)N3CCCC(N3)C(=O)OCC(C)(C)C2)C1")
69
>>> numeric_value("CC1(O)CCCC1n1c(=O)c(C(F)F)cc2cnc(NC3CCN(S(C)(=O)=O)CC3)nc21 (stereo unspecified) + CCn1c(-c2cc(N3CCN(C)CC3)cnc2C(C)OC)c2c3cc(ccc31)-c1csc(n1)CC(NC(=O)C1CC1C)C(=O)N1CCCC(N1)C(=O)OCC(C)(C)C2")
24.1
>>> numeric_value("CC(C)NCC(C(=O)N1CCN(c2ncnc3c2C(C)CC3O)CC1)c1ccc(Cl)cc1 (stereo unspecified) + CCn1c(-c2cc(N3CCN(C)CC3)cnc2C(C)OC)c2c3cc(ccc31)-c1csc(n1)CC(NC(=O)C1CC1C)C(=O)N1CCCC(N1)C(=O)OCC(C)(C)C2")
22.8

[in] Sample CC(Nc1ccc2c(c1)OCCn1cc(N3C(=O)OCC3C(F)F)nc1-2)C(N)=O (stereo unspecified) + CCn1c(-c2cc(N3CCN(C)CC3)cnc2C(C)OC)c2c3cc(ccc31)-c1csc(n1)CC(NC(=O)C1CC1C)C(=O)N1CCCC(N1)C(=O)OCC(C)(C)C2 — what was its viability, T/C?
[out] 14.2

[in] Sample C[C@@H](NC(=O)c1ncnc(N)c1Cl)c1ncc(C(=O)Nc2cc(C(F)(F)F)c(Cl)cn2)s1 + CCn1c(-c2cccnc2C(C)OC)c2c3cc(ccc31)N1CCOC(CC(NC(=O)C(C(C)C)N(C)C(=O)C3(F)CCN(C(=O)C#CC(C)(C)N(C)C)CC3)C(=O)N3CCCC(N3)C(=O)OCC(C)(C)C2)C1 — what was its viability, T/C?
[out] 88

[in] Sample Cc1nc(N2CCC3(CC2)COC(C)C3N)c(CO)nc1Sc1ccnc(N)c1Cl (stereo unspecified) + CCn1c(-c2cccnc2C(C)OC)c2c3cc(ccc31)N1CCOC(CC(NC(=O)C(C(C)C)N(C)C(=O)C3(F)CCN(C(=O)C#CC(C)(C)N(C)C)CC3)C(=O)N3CCCC(N3)C(=O)OCC(C)(C)C2)C1 — what was its viability, T/C?
[out] 40.1

[in] Sample NC1c2ccccc2OC12CCN(c1cnc3c(N4CCCc5ncccc54)n[nH]c3n1)CC2 (stereo unspecified) + CCn1c(-c2cc(N3CCN(C)CC3)cnc2C(C)OC)c2c3cc(ccc31)-c1csc(n1)CC(NC(=O)C1CC1C)C(=O)N1CCCC(N1)C(=O)OCC(C)(C)C2 — what was its viability, T/C?
[out] 21.9

[in] Sample CC(Nc1ccc2c(c1)OCCn1cc(N3C(=O)OCC3C(F)F)nc1-2)C(N)=O (stereo unspecified) + CCn1c(-c2cccnc2C(C)OC)c2c3cc(ccc31)N1CCOC(CC(NC(=O)C(C(C)C)N(C)C(=O)C3(F)CCN(C(=O)C#CC(C)(C)N(C)C)CC3)C(=O)N3CCCC(N3)C(=O)OCC(C)(C)C2)C1 — what was its viability, T/C?
[out] 46.6

[in] Sample Cc1nc(N2CCC3(CC2)COC(C)C3N)c(CO)nc1Sc1ccnc(N)c1Cl (stereo unspecified) + CCn1c(-c2cc(N3CCN(C)CC3)cnc2C(C)OC)c2c3cc(ccc31)-c1csc(n1)CC(NC(=O)C1CC1C)C(=O)N1CCCC(N1)C(=O)OCC(C)(C)C2 — what was its viability, T/C?
[out] 20
